I'd appreciate it if you could supply inhibition at 0.1 µM values for the items below.
measured.target: recombinant human ALK enzyme (ALK WT) (Homo sapiens)
Construct: purchased Carna Biosciences 08-518
Sequence (Q9UM73 1058-1620 limits assumed): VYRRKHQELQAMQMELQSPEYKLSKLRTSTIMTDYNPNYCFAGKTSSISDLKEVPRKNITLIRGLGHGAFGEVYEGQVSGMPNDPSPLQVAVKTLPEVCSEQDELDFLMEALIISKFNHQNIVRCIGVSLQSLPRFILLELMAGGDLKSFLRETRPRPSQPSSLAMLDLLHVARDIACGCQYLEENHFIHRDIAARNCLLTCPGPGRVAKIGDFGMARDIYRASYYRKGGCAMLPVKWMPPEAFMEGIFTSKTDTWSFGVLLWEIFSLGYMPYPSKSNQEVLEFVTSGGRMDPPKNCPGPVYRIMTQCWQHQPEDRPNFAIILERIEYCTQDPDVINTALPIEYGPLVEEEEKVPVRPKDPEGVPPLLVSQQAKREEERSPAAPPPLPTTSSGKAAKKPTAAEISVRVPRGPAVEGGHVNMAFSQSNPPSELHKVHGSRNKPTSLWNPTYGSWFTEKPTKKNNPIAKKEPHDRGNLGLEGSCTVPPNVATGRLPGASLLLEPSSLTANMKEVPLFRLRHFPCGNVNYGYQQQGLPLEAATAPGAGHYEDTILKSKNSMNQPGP
test.name: ALK WT cell free enzymatic assay (TR-FRET)
Type: biochemical
conditions.used: compound at 100 nM; 30 min pre-incubation; 1 μM ATP
In your response, put the unit directly after the numeric value.

COc1ccc(-c2cnc3[nH]cc(-c4cnn(CCc5ccccc5)c4)c3c2)cc1NS(C)(=O)=O [Example 64]	59%
Cc1nn(Cc2cccc(F)c2)c(C)c1-c1c[nH]c2ncc(-c3ccc(N4CCOCC4)c(NS(C)(=O)=O)c3)cc12 [Example 59]	49%
O=C(CC1CC1)N1CCN(c2ccc(-c3cnc4[nH]cc(-c5cnn(Cc6cccc(F)c6)c5)c4c3)cn2)CC1 [Example 160]	20%

What does the record list as inhibition at 0.1 µM for OC1CCN(c2ccc(-c3cnc4[nH]cc(-c5cnn(Cc6cccc(F)c6)c5)c4c3)cn2)CC1 [Example 155] ?
86%

The reported numbers originate from patent US9353107B2.
